For each entry below, report its phosphorylation enrichment value.
Tested on: c-Abl (mouse);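 also: 11-residue human phosphosite peptides and single-mutation variants displayed on the E. coli surface, counted by deep sequencing, each peptide's frequency after selection divided by its frequency in the unselected input library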;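 also: frequency after pTyr selection over input frequency; kinase dosed for 20-30% of maximal phosphorylation in three min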
EXPERIMENT_DESCRIPTION: phosphorylation enrichment, bacterial display (enrichment ratio); higher = better substrate or ligand; peptides without Tyr show the background
Give bare numbers.

# example entries with known answers
                       item_sequence  test_result
0   FHIDHYLGKEM [G6PD_Y202_R198H_YF]        0.415
1            SARFRYLMAEK [LDHB_Y173]        0.566
2             RQGKDYVGAIP [KDR_Y951]        0.636
3       IKKLIYVYLVI [JAGN1_Y42_H44Y]        0.955
4           ENFSEYQEIAV [HEMGN_Y150]        0.957
5     AAVDTYCRHNF [HLA-DRB1_Y107_YF]        0.755
6                        ANNEFYFRVCA        0.923
7    ASMAKYYASGI [ACADSB_Y372_E376G]        0.851
8            DPHKIYEFVNS [IRF3_Y107]         4.23
9  RFLRGYQQDAF [HLA-A_Y137_R138Q_YF]         0.81

Please give phosphorylation enrichment, item by item, for the list that follows.
1. TTGLIYIGSHD [AASDH_Y870]
2. EICTQYEAMAS [GFAP_Y242_R239C]
3. DDDPEYRKFLE [UPF3B_Y160]

[out]
[0.488, 0.71, 0.577]

[in] Reported phosphorylation enrichment for QWRTKYEMDAI [MYH7_Y1375_T1377M] : what is it?
[out] 0.5
